Target: UniProt:P30938
*1 amine or outer side, *2 acyl side, *3 side chain or, on linkers, in order; H or OH if unused. Where a SMILES comes first, the peptide text is derived from it. [ ]: non-standard residue; d: D form. X3 = C[C@@H](C(=O)[*:2])N(Cc1ccc2ccccc2c1)[*:1]; NMeA = CN[C@@H](C)C(=O)O; Abu = CC[C@H](N)C(=O)O; Ahp = NCCCCCCC(=O)O
Simple rule here: Ki less than 3 nM is Y, otherwise N.

Q. Does the reported Ki of the following compound sit strictly below 3 nM? C[C@@H](O)[C@@H]1NC(=O)[C@H](CCCCN)NC(=O)[C@@H](Cc2c[nH]c3ccccc23)NC(=O)[C@H](Cc2ccccc2)NC(=O)[C@@H]2CCCN2C(=O)[C@H](Cc2ccccc2)NC1=O (cyclo(PF[dW]KTF))
A. N

Q. Does the reported Ki of the following compound sit strictly below 3 nM? C[C@@H](O)[C@@H]1NC(=O)[C@H](CCCCN)NC(=O)[C@@H](Cc2c[nH]c3ccccc23)NC(=O)[C@H](Cc2c[nH]c3ccccc23)NC(=O)[C@H](Cc2ccccc2)NC(=O)CCCCCCNC(=O)[C@H](Cc2ccccc2)NC1=O [L-362855] (cyclo([Ahp]FW[dW]KTF))
A. Y

Q. Does the reported Ki of the following compound sit strictly below 3 nM? CC(C)[C@H](NC(=O)[C@H](CCCCN)NC(=O)[C@@H](Cc1c[nH]c2ccccc12)NC(=O)[C@H](Cc1ccc(O)cc1)NC(=O)[C@H](C)NCc1ccc2ccccc2c1)C(=O)N[C@@H](C)C(=O)N[C@H](C(N)=O)[C@@H](C)O [D-Nal-Ala-Tyr-D-Trp-Lys-Val-Ala-Thr-NH2] (H-[X3]Y[dW]KVAT-NH2)
A. N

Q. Does the reported Ki of the following compound sit strictly below 3 nM? CC[C@@H]1NC(=O)[C@H](CCCCN)NC(=O)[C@@H](Cc2c[nH]c3ccccc23)NC(=O)[C@H](Cc2ccc(O)cc2)NC(=O)[C@H](C)N(C)C(=O)[C@H](Cc2ccccc2)NC1=O [BIM-23027] (cyclo([Abu]F[NMeA]Y[dW]K))
A. N

Q. Does the reported Ki of the following compound sit strictly below 3 nM? CC(C)[C@H](NC(=O)[C@H](CCCCN)NC(=O)[C@@H](Cc1c[nH]c2ccccc12)NC(=O)[C@H](Cc1ccc(O)cc1)NC(=O)[C@H](Cc1ccccc1)NC(=O)[C@@H](N)Cc1ccccc1)C(=O)N[C@@H](Cc1ccccc1)C(=O)N[C@H](C(N)=O)[C@@H](C)O [BIM-23058] (H-FFY[dW]KVFT-NH2)
A. Y

* * *

Biological target: UniProtKB P30938
Sequence (P30938 whole entry): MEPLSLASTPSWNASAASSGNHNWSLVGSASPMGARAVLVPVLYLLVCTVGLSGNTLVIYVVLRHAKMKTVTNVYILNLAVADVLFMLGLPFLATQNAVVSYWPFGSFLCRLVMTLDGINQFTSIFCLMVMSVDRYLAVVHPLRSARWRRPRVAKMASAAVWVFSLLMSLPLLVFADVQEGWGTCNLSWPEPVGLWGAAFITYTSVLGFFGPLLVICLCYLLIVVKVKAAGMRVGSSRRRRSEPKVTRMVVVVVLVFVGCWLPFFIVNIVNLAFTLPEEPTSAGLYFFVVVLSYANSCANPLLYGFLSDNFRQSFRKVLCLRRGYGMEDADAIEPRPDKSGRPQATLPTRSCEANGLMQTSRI
Where a SMILES comes first, the peptide text is derived from it. Bridges are numbered along the chain shown (N, C = ends). [ ]: non-standard residue; d: D form. The star is where a group is joined. ξ: configuration not given here. Phe(4-Cl) = N[C@@H](Cc1ccc(Cl)cc1)C(=O)O; dThr(3ξ) = CC(O)[C@@H](N)C(=O)O; ξF = NC(Cc1ccccc1)C(=O)O; X2 = CC(O)[C@H](CO)N*; Ahp = NCCCCCCC(=O)O; ξC = NC(CS)C(=O)O
Measured attribute: Ki (nM)
# value in nM; strip the unit string

# Ki measured on UniProtKB P30938 for item C[C@@H](O)[C@@H]1NC(=O)[C@H](CCCCN)NC(=O)[C@@H](Cc2c[nH]c3ccccc23)NC(=O)[C@H](Cc2ccccc2)NC(=O)[C@H](Cc2ccc(Cl)cc2)NC(=O)CCCCCCNC(=O)[C@H](Cc2ccccc2)NC1=O [L-362862] (cyclo([Ahp][Phe(4-Cl)]F[dW]KTF)) = 0.46

# Ki measured on UniProtKB P30938 for item CC(O)[C@H](CO)NC(=O)[C@@H]1CSSCC(NC(=O)C(N)Cc2ccccc2)C(=O)N[C@H](Cc2ccccc2)C(=O)N[C@H](Cc2c[nH]c3ccccc23)C(=O)N[C@H](CCCCN)C(=O)N[C@H](C(C)O)C(=O)N1 (some centres not stated) (H-[ξF][ξC][dF][dW][dK][dThr(3ξ)]C-X2; disulfide 2-7) = 0.57

* * *

*1 amine or outer side, *2 acyl side, *3 side chain or, on linkers, in order; H or OH if unused. Where a SMILES comes first, the peptide text is derived from it. Bridges are numbered along the chain shown (N, C = ends). [ ]: non-standard residue; d: D form. The star is where a group is joined. Phe(4-Cl) = N[C@@H](Cc1ccc(Cl)cc1)C(=O)O; d2Nal = N[C@H](Cc1ccc2ccccc2c1)C(=O)O; dNMeF = CN[C@H](Cc1ccccc1)C(=O)O; X1 = O=C(C(N[*:1])S[*:3])[*:2]; NMeA = CN[C@@H](C)C(=O)O; dNMeA = CN[C@H](C)C(=O)O; Abu = CC[C@H](N)C(=O)O; Ahp = NCCCCCCC(=O)O; Bn = c1ccc(C*)cc1; Mpa = O=C(O)CCS
Could you please report measured pKi for the items listed next?
# pKi: negative log10 of molar concentration; output just the value

# pKi measured on Somatostatin receptor type 4 (Mus musculus, UniProt P49660) for item C[C@@H](O)[C@@H]1NC(=O)[C@H](CCCCN)NC(=O)[C@@H](Cc2c[nH]c3ccccc23)NC(=O)[C@H](Cc2c[nH]c3ccccc23)NC(=O)[C@H](Cc2ccccc2)NC(=O)CCCCCCNC(=O)[C@H](Cc2ccccc2)NC1=O [L-362855] (cyclo([Ahp]FW[dW]KTF)) = 7.20

# pKi measured on Somatostatin receptor type 4 (Mus musculus, UniProt P49660) for item C[C@@H](O)[C@@H]1NC(=O)[C@H](CCCCN)NC(=O)[C@@H](Cc2c[nH]c3ccccc23)NC(=O)[C@H](Cc2ccc(Cl)cc2)NC(=O)[C@H](Cc2ccccc2)NC(=O)CCCCCCNC(=O)[C@H](Cc2ccccc2)NC1=O [L-362862] (cyclo([Ahp]F[Phe(4-Cl)][dW]KTF)) = 7.36

# pKi measured on Somatostatin receptor type 4 (Mus musculus, UniProt P49660) for item C[C@@H](OCc1ccccc1)[C@@H]1NC(=O)[C@H](CCCCN)NC(=O)[C@@H](Cc2c[nH]c3ccccc23)NC(=O)[C@H](Cc2ccccc2)NC(=O)CCCCCCNC1=O [c[Aha-Phe-D-Trp-Lys-Thr(Bzl)]] (cyclo([Ahp]F[dW]KT(Bn))) = 6.00

# pKi measured on Somatostatin receptor type 4 (Mus musculus, UniProt P49660) for item CC[C@@H]1NC(=O)[C@H](CCCCN)NC(=O)[C@@H](Cc2c[nH]c3ccccc23)NC(=O)[C@H](Cc2ccc(O)cc2)NC(=O)[C@H](C)N(C)C(=O)[C@H](Cc2ccccc2)NC1=O [BIM-23027] (cyclo([Abu]F[NMeA]Y[dW]K)) = 6.00

# pKi measured on Somatostatin receptor type 4 (Mus musculus, UniProt P49660) for item CC(C)[C@H](NC(=O)[C@H](CCCCN)NC(=O)[C@@H](Cc1c[nH]c2ccccc12)NC(=O)[C@H](Cc1ccc(O)cc1)NC(=O)[C@H](C)NC(=O)[C@H](N)Cc1ccc2ccccc2c1)C(=O)N[C@@H](C)C(=O)N[C@H](C(N)=O)[C@@H](C)O [D-Nal-Ala-Tyr-D-Trp-Lys-Val-Ala-Thr-NH2] (H-[d2Nal]AY[dW]KVAT-NH2) = 6.00

# pKi measured on Somatostatin receptor type 4 (Mus musculus, UniProt P49660) for item C[C@H](O)[C@H]1NC(=O)[C@H](CCCCN)NC(=O)[C@@H](Cc2c[nH]c3ccccc23)NC(=O)[C@@H](Cc2ccccc2)NC(=O)[C@@H](C)N(C)C(=O)[C@@H](Cc2ccccc2)N(C)C1=O (cyclo(K[dT][dNMeF][dNMeA][dF][dW])) = 6.00

# pKi measured on Somatostatin receptor type 4 (Mus musculus, UniProt P49660) for item CC(C)[C@H](NC(=O)[C@H](CCCCN)NC(=O)[C@@H](Cc1c[nH]c2ccccc12)NC(=O)[C@H](Cc1ccc(O)cc1)NC(=O)[C@H](Cc1ccccc1)NC(=O)[C@H](N)Cc1ccccc1)C(=O)N[C@@H](Cc1ccccc1)C(=O)N[C@H](C(N)=O)[C@@H](C)O [BIM-23058] (H-[dF]FY[dW]KVFT-NH2) = 7.11

# pKi measured on Somatostatin receptor type 4 (Mus musculus, UniProt P49660) for item CC(C)[C@H](NC(=O)[C@H](CCCCN)NC(=O)[C@@H](Cc1c[nH]c2ccccc12)NC(=O)[C@H](Cc1ccc(O)cc1)NC(=O)[C@H](Cc1ccccc1)NC(=O)[C@H](N)Cc1ccccc1)C(=O)N[C@@H](Cc1ccccc1)C(=O)N[C@H](Cc1ccc2ccccc2c1)C(N)=O [CAS_150155-61-6] (H-[dF]FY[dW]KVF[d2Nal]-NH2) = 6.80

# pKi measured on Somatostatin receptor type 4 (Mus musculus, UniProt P49660) for item C[C@@H](O)[C@@H]1NC(=O)[C@H](CCCCN)NC(=O)[C@@H](Cc2c[nH]c3ccccc23)NC(=O)[C@H](Cc2ccccc2)NC(=O)[C@@H]2CCCN2C(=O)[C@H](Cc2ccccc2)NC1=O (cyclo(PF[dW]KTF)) = 6.00

# pKi measured on Somatostatin receptor type 4 (Mus musculus, UniProt P49660) for item CC(C)[C@H](NC(=O)[C@H](CCCCN)NC(=O)[C@@H](Cc1c[nH]c2ccccc12)NC(=O)[C@H](Cc1ccc(O)cc1)NC(=O)[C@H](C)NC(=O)[C@H](N)Cc1ccccc1)C(=O)N[C@@H](C)C(=O)N[C@H](Cc1ccc2ccccc2c1)C(N)=O (H-[dF]AY[dW]KVA[d2Nal]-NH2) = 6.00

# pKi measured on Somatostatin receptor type 4 (Mus musculus, UniProt P49660) for item CC(C)[C@@H]1NC(=O)[C@H](CCCCN)NC(=O)[C@@H](Cc2c[nH]c3ccccc23)NC(=O)[C@H](Cc2ccc(O)cc2)NC(=O)CCSSC(C(=O)N[C@@H](Cc2ccccc2)C(N)=O)NC1=O (stereo partly specified) [CAS_117580-24-2] ([Mpa]Y[dW]KV[X1]F-NH2; disulfide 1-6) = 6.44
